# System: RARa:RXR (NR concentration 270 nM, RXRa partner concentration 90 nM)
# PROCEDURE_TEXT: PBM binding z-score (relative to random genomic background probes); higher = stronger binding; sequences stand for … in GC…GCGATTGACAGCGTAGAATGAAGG
I would appreciate it if you labelled entries 1.0 when PBM binding z-score is 0.4 or higher, otherwise 0.0.

Task: State whether the measured PBM binding z-score reaches 0.4, counting equality as reaching it, for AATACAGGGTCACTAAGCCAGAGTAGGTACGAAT
Result: 1.0

Task: Consider next the sequence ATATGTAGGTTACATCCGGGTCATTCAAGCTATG in the same way.
Result: 1.0

Task: Consider next the sequence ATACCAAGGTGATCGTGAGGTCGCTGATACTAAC in the same way.
Result: 1.0

Task: Consider next the sequence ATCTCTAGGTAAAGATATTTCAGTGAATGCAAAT in the same way.
Result: 1.0

Task: Consider next the sequence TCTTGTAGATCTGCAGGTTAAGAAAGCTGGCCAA in the same way.
Result: 0.0

Task: Consider next the sequence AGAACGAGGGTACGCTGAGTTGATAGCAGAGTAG in the same way.
Result: 0.0

Task: Consider next the sequence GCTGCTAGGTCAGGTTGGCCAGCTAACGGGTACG in the same way.
Result: 0.0

Task: Consider next the sequence GCTAGTTGGTCAGTAAAAGATCACACACCGGTCG in the same way.
Result: 0.0

Task: Consider next the sequence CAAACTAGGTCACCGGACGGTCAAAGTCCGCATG in the same way.
Result: 1.0

Task: Consider next the sequence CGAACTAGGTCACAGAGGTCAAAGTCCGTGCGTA in the same way.
Result: 1.0

---

# System: VDR:RXRa (NR concentration 270 nM, RXRa partner concentration 90 nM)
# PROCEDURE_TEXT: PBM binding z-score (relative to random genomic background probes); higher = stronger binding; sequences stand for … in GC…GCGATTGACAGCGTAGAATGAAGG
Record form. Attribute: PBM binding z-score. Fill in for each entry.

Task: Recorded PBM binding z-score of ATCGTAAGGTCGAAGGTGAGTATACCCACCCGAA , please.
Result: 2.04

Task: Consider next the sequence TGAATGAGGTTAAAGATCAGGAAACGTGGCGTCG in the same way.
Result: 1.95

Task: Consider next the sequence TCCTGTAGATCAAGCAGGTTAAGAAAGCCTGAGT in the same way.
Result: 0.503

---

# System: PPARg:RXRa 270nM:90nM, anti-RXR (NR concentration 270 nM, RXRa partner concentration 90 nM)
# PROCEDURE_TEXT: PBM binding z-score (relative to random genomic background probes); higher = stronger binding; sequences stand for … in GC…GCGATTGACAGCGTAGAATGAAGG
Record form. Attribute: PBM binding z-score. Fill in for each entry.
Answer as a number with no unit attached.

Task: Recorded PBM binding z-score of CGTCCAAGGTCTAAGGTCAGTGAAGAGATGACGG , please.
Result: 4

Task: Consider next the sequence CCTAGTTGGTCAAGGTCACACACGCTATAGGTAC in the same way.
Result: 3.96

Task: Consider next the sequence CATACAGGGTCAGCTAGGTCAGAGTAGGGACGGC in the same way.
Result: 3.93

Task: Consider next the sequence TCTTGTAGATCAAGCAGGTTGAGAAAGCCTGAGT in the same way.
Result: 0.973

---

Record form. Attribute: PBM binding z-score. Fill in for each entry.
# System: PXR:RXRa (NR concentration 270 nM, RXRa partner concentration 90 nM)
# PROCEDURE_TEXT: PBM binding z-score (relative to random genomic background probes); higher = stronger binding; sequences stand for … in GC…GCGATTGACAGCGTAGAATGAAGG
Answer as a number with no unit attached.

Task: Recorded PBM binding z-score of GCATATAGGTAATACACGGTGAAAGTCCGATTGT , please.
Result: 0.213

Task: Consider next the sequence TAGCCTAGGTCATGGGCCAGTATACCACGCGAAC in the same way.
Result: 1.62

Task: Consider next the sequence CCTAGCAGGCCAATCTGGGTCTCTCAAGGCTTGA in the same way.
Result: -0.821

Task: Consider next the sequence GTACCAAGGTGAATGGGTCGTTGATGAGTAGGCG in the same way.
Result: 0.325

Task: Consider next the sequence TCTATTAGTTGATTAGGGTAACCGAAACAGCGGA in the same way.
Result: 0.646

Task: Consider next the sequence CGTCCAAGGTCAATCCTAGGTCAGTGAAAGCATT in the same way.
Result: 5.13

Task: Consider next the sequence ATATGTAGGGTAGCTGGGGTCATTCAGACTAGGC in the same way.
Result: 6.03

Task: Consider next the sequence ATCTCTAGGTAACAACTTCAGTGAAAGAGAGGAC in the same way.
Result: 0.286

Task: Consider next the sequence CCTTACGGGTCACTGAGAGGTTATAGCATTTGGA in the same way.
Result: 5.18

Task: Consider next the sequence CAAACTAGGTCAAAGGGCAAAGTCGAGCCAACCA in the same way.
Result: 4.09

Task: Consider next the sequence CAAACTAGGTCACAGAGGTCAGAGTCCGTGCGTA in the same way.
Result: 5.59

Task: Consider next the sequence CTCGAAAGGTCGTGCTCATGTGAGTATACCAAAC in the same way.
Result: 3.17

Task: Consider next the sequence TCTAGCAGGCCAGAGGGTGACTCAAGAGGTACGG in the same way.
Result: -0.274

Task: Consider next the sequence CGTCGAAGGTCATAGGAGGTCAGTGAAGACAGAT in the same way.
Result: 6.79

Task: Consider next the sequence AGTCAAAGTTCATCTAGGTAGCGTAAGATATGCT in the same way.
Result: 4.98

---

Record form. Attribute: PBM binding z-score. Fill in for each entry.
# System: PPARg:RXRa (NR concentration 180 nM, RXRa partner concentration 90 nM)
# PROCEDURE_TEXT: PBM binding z-score (relative to random genomic background probes); higher = stronger binding; sequences stand for … in GC…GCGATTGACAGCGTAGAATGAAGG
Answer as a number with no unit attached.

Task: Recorded PBM binding z-score of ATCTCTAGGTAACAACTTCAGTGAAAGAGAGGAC , please.
Result: 0.782

Task: Consider next the sequence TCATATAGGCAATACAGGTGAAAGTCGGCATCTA in the same way.
Result: 0.823

Task: Consider next the sequence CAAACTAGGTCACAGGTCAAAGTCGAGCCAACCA in the same way.
Result: 12.3

Task: Consider next the sequence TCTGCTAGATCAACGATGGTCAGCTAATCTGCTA in the same way.
Result: -0.175

Task: Consider next the sequence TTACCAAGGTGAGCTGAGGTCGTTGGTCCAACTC in the same way.
Result: -0.467

Task: Consider next the sequence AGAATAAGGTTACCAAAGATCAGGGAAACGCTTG in the same way.
Result: 1.84

Task: Consider next the sequence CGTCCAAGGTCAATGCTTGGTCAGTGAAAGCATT in the same way.
Result: 3.44

Task: Consider next the sequence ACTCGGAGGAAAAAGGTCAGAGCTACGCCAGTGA in the same way.
Result: 2.6

Task: Consider next the sequence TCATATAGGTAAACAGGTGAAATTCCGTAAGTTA in the same way.
Result: 2.75

Task: Consider next the sequence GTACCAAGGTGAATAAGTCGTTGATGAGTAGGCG in the same way.
Result: 0.832

Task: Consider next the sequence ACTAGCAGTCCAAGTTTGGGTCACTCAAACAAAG in the same way.
Result: -0.105

Task: Consider next the sequence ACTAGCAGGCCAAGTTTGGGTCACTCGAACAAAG in the same way.
Result: 0.0973

Task: Consider next the sequence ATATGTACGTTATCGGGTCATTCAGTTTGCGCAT in the same way.
Result: 1.3

Task: Consider next the sequence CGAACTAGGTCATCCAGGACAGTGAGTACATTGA in the same way.
Result: 7.45

Task: Consider next the sequence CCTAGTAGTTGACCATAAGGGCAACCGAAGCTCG in the same way.
Result: 0.269

Task: Consider next the sequence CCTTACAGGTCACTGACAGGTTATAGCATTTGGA in the same way.
Result: 4.78

Task: Consider next the sequence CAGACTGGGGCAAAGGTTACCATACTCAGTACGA in the same way.
Result: 10.9

Task: Consider next the sequence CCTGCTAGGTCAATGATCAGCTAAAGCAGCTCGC in the same way.
Result: 1.98

Task: Consider next the sequence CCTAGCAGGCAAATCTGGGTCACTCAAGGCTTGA in the same way.
Result: 2.26

Task: Consider next the sequence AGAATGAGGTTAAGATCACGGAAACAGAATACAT in the same way.
Result: 2.6

Task: Consider next the sequence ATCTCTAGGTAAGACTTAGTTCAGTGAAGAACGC in the same way.
Result: 0.205

Task: Consider next the sequence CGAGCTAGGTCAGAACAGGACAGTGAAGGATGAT in the same way.
Result: 1.11

Task: Consider next the sequence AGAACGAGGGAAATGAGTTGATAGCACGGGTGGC in the same way.
Result: 0.813

Task: Consider next the sequence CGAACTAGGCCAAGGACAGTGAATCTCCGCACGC in the same way.
Result: 1.69
